Source of measurements: PubChem BioAssay (NCI)

test: NCI Yeast Anticancer Drug Screen. Data for the mec2-1 strain (AID 157); settings: S. cerevisiae mec2-1 strain, at 50.0 µM, hits give high values
The panel holds about 79,000 compounds, 15% with a hit somewhere; the sample as a whole holds those more often. The source made the active and inactive calls. No stated cut-off is given here; in the data, active means growth inhibition above about 70%; inactive means the rest.
Quick list: growth inhibition per entry.

{"COMPOUND": "CN(Cc1cc(Cl)cc(Cl)c1O)Cc1c(O)ccc2ccccc12", "growth inhibition": "98.3% (active)"}
{"COMPOUND": "COc1ccc2cc(C(=O)CCCC(C)C(=O)O)ccc2c1 (centres undefined)", "growth inhibition": "-7.85% (inactive)"}
{"COMPOUND": "CCCCCC1OC1CC1OC1CCCCCCCC(=O)OC (centres undefined)", "growth inhibition": "18.8% (inactive)"}
{"COMPOUND": "CCCCCC/C=C\\C=O", "growth inhibition": "37.1% (inactive)"}
{"COMPOUND": "Cc1cc(C)c(N2C(=O)C=CC2=O)c(C)c1", "growth inhibition": "99.7% (active)"}
{"COMPOUND": "C/C(=N/NC(=S)N1CCCC1)c1cccc(/C(C)=N\\NC(=S)N2CCCC2)n1", "growth inhibition": "-14.9% (inactive)"}
{"COMPOUND": "CCCCNC(=O)OCCN=C1c2ccccc2C(Br)C(Br)c2ccccc21 (centres undefined)", "growth inhibition": "98.5% (active)"}
{"COMPOUND": "Nc1ccccc1Sc1ccc(F)cc1[N+](=O)[O-]", "growth inhibition": "89.8% (active)"}
{"COMPOUND": "CCCCCCCCCCCCCCCC(=O)N1CC[N+](C)(CC2=CC3(Cl)C(Cl)=C(Cl)C2(Cl)C3(Cl)Cl)CC1 (centres undefined)", "growth inhibition": "99.2% (active)"}
{"COMPOUND": "Cc1[nH]nc(C(=O)N/N=C/c2cccs2)c1N=NN(C)C", "growth inhibition": "82.9% (active)"}
{"COMPOUND": "O=C(/C=C/c1ccccc1)NOC(=O)/C=C/c1ccccc1", "growth inhibition": "99.2% (active)"}
{"COMPOUND": "O=[N+]([O-])c1cccc2c[n+](Cc3ccccc3)ccc12", "growth inhibition": "1.65% (inactive)"}
{"COMPOUND": "O=[N+]([O-])c1ccccc1N=Nc1c(O)[nH]c2cccc(C(F)(F)F)c12", "growth inhibition": "18.5% (inactive)"}
{"COMPOUND": "Oc1ccc(Br)cc1-c1nc2cc(Cl)c(Cl)cc2nc1-c1cc(Br)ccc1O", "growth inhibition": "86.3% (active)"}
{"COMPOUND": "Cn1c(=S)c2[nH]c(SCCN3CCCC3)nc2n(C)c1=O", "growth inhibition": "61.2% (inactive)"}
{"COMPOUND": "O=C1O/C(=C\\c2ccccc2)c2ccccc21", "growth inhibition": "37.1% (inactive)"}
{"COMPOUND": "CCOC(=O)C(Cc1ccc(O)c(C=O)c1)NC(C)=O (centres undefined)", "growth inhibition": "-7.45% (inactive)"}
{"COMPOUND": "O=C1OC(c2ccccc2)(c2ccc(-c3ccccc3O)cc2)c2ccccc21 (centres undefined)", "growth inhibition": "95.1% (active)"}
{"COMPOUND": "CCCCCC(CN(C)C)C(=O)/C=C/c1ccc(Cl)cc1 (centres undefined)", "growth inhibition": "99.3% (active)"}
{"COMPOUND": "O=C(Cc1ccccc1)NC(C(=O)c1ccccc1)c1ccccc1 (centres undefined)", "growth inhibition": "31.1% (inactive)"}
{"COMPOUND": "CCc1cccc(C(C)(C)C)c1NC(=S)/N=C/C(C(=O)c1ccccc1)=C(\\O)c1ccccc1", "growth inhibition": "55.3% (inactive)"}
{"COMPOUND": "CCCCC1C(=S)N(c2ccccc2)N(c2ccccc2)C1=S", "growth inhibition": "40.9% (inactive)"}
{"COMPOUND": "COc1cc(C(c2cc3c(cc2O)OCO3)N2CCOCC2)ccc1O (centres undefined)", "growth inhibition": "57.5% (inactive)"}
{"COMPOUND": "COc1ccc(/C=C/c2ccnnc2)c(OC)c1OC", "growth inhibition": "79.5% (active)"}
